Tested on: Enterococcus faecium
Assay: Antimicrobial activity against Enterococcus faecium EF1509 by broth dilution method
Type: functional
What MIC was measured for each of the following?

What value of MIC has been reported for the following compound? "CN(C)c1ccc(/C=C/c2cc(-c3ccc(Br)cc3)cc(-c3ccc(Br)cc3)[o+]2)cc1.F[B-](F)(F)F"
46.8 to 80 µM

Suppose we examine the compound "CCC(=O)N1CCN(c2ccc(/C=C/c3cc(-c4cccc(Br)c4)cc(-c4cccc(Br)c4)[o+]3)cc2)CC1" ; what MIC value has been reported?
51.4 µM

// MIC lookup, key: "CC(=O)N1CCN(c2ccc(/C=C/c3cc(-c4ccc(F)cc4)cc(-c4ccc(F)cc4)[o+]3)cc2)CC1"
> 80 µM

For "CN(C)c1ccc(/C=C/c2ccc(/C=C/c3cc(-c4ccc(Br)cc4)cc(-c4ccc(Br)cc4)[o+]3)cc2)cc1" , what is its reported MIC?
> 80 µM

Please give the measured MIC for this compound: "CN1/C(=C/C=C/c2cc(-c3ccc(Br)cc3)cc(-c3ccc(Br)cc3)[o+]2)C(C)(C)c2cc(Cl)ccc21"
22.5 µM

Look up MIC for this compound: "Brc1ccc(-c2cc(/C=C/c3ccc(N4CCCCC4)cc3)[o+]c(-c3ccc(Br)cc3)c2)cc1"
> 80 µM

Find the recorded MIC belonging to "OCCN(CCO)c1ccc(/C=C/c2cc(-c3ccc(Br)cc3)cc(-c3ccc(Br)cc3)[o+]2)cc1" and report it.
> 80 µM

Fill in the blank: the reported MIC of "CN(CCO)c1ccc(/C=C/c2cc(-c3ccc(Br)cc3)cc(-c3ccc(Br)cc3)[o+]2)cc1" is ____.
> 80 µM

These entries and their values trace back to ChEMBL document CHEMBL4340569.
